# Tested on: SW-620
# assay-summary: NCI tumour cell line growth inhibition, 48 h
The source made the active and inactive calls. Rule as the data show it: active = GI50 up to about 1.1 µM and inactive = higher.
Parameter call: string, one of active, inactive

O=C(/C=C/c1ccccc1F)c1ccc(Cl)c(Cl)c1
inactive
O=C1CCCC2=C(N1)C(=O)C=CC2=O
inactive
CC1(C)[N+]([O-])=[N+]([O-])C1(Br)c1ccccc1 (stereo unspecified)
inactive
CN(CCCNC(=O)c1nn(-c2ccc(Cl)cc2Cl)c2c1ccc1ccccc12)CCCNC(=O)c1nn(-c2ccc(Cl)cc2Cl)c2c1ccc1ccccc12
inactive
COC(=O)/C(=N\N)C(C(=O)C(=O)Nc1cccc([N+](=O)[O-])c1)c1nc2ccc(C(=O)c3ccccc3)cc2nc1O (stereo unspecified)
inactive
CCOC(=O)c1c2cccccc2n2c(=O)cc(C)nc12
inactive
CCN(CC)C(=S)N/N=C(\C)c1ccccc1O
inactive
CCOc1ccc(Nc2nc(N)nc(N)c2N)cc1
inactive
COc1cccc2c1C(=O)c1c(O)c3c(c(O)c1C2=O)C[C@@](O)(C(=O)CO)CC3OC1CC(N(C)CCOCC(OC(C)=O)OC(C)=O)C(O)C(C)O1 (stereo partly specified)
active
N=C(N)SCCCN
inactive

Consider the additional compound presented here.
Could you please tell me the result logged for O=C(N(C1=CCCC1)N(c1ccccc1)c1ccccc1)C(F)(F)F in this assay? inactive

====

# Test system: SF-539
# assay-summary: NCI tumour cell line growth inhibition, 48 h
Active and inactive are the calls of the source. No stated cut-off is given here; in the data, active = GI50 up to about 1.1 µM and inactive = higher.
What GI50 was measured for each of the following?

O=[N+]([O-])c1cc(Cl)ccc1S(=O)(=O)N1CCCc2cc(Cl)ccc21
93.1 µM (inactive)
CNC(=O)C(C)C1C(=O)/C(=C(O)/C=C\C(C)=C\C(C)C2OC3(C)OC(C=CC34CO4)C2C)C(=O)N1C1CCC(O)C(C)O1 (centres undefined)
> 100 µM (inactive)
O=C1CNS(=O)(=O)N1
> 100 µM (inactive)
COCOc1c(C(OCOC)c2cnc(Sc3ccccc3)n2C)ccc(OC)c1OC (centres undefined)
> 100 µM (inactive)
C=C1C(=O)OC2/C=C(\C)C3OC3/C=C(/C(=O)OC)C(O)C(OC(=O)C3(C)OC3C)C12 (centres undefined)
2.18 µM (inactive)

Hi team, please reply with GI50 for each item in this list.
1. O=C(c1ccc(Cl)cc1Cl)N(/N=C/C=C/c1ccccc1)c1nnc(-c2ccccc2)c(-c2ccccc2)n1
2. CC(=O)c1sc2c(c1OC(=O)c1ccco1)c(=O)n(-c1ccccc1)c(=S)n2-c1ccccc1
3. Cc1cc(NS(=O)(=O)c2ccc(/N=N/c3c(O)c(C(=O)O)cc4ccccc34)cc2)nc(C)n1
4. CC1=CC[C@H](C)C(C)(C)C1/C=C/C(C)=C/CC[C@@]1(CO)[C@H](CCCO)/C(=C(/C)C=O)CC[C@]1(C)O (some centres undefined)

> 100 µM (inactive)
4.19 µM (inactive)
> 100 µM (inactive)
6.78 µM (inactive)

====

# Test system: MDA-MB-435
# assay-summary: NCI tumour cell line growth inhibition, 48 h
Calls of active or inactive are those of the source. No stated cut-off is given here; in the data, active = GI50 up to about 1.1 µM and inactive = higher.
test-readout: GI50

CC(C)(C)c1ccc(C(O)(c2ccc(C(C)(C)C)cc2)c2ccc(C(C)(C)C)cc2)cc1
> 100 µM (inactive)
COc1ccccc1N1C(=O)CS(=O)(=O)C1c1cccc(Oc2ccccc2)c1 (stereo not given)
4.26 µM (inactive)

Hi team, please reply with GI50 for each item in this list.
1. C=C(Br)C(Cl)(CBr)CCC(Br)C(C)(C)Cl (stereo not given)
2. COc1ccc2c(c1)CC1=C(O2)c2ccc(OC)cc2OC1
3. O=C1CN2C(c3ccccc3)=NN(c3ccc([N+](=O)[O-])cc3)C2(c2ccccc2)c2cc(Cl)ccc2N1CC1CC1 (stereo not given)

["> 10 µM (inactive)", "17.5 µM (inactive)", "> 100 µM (inactive)"]

====

# Test system: SNB-75
# assay-summary: NCI tumour cell line growth inhibition, 48 h
Activity calls are given as the source filed them. Cut-off read from the data, not from the text of the source: active = GI50 up to about 1.1 µM and inactive = higher.
Parameter call: string, one of active, inactive

CCN(CC)C(=S)N/N=C(\C)c1ccccc1O
inactive

Could you please tell me the result logged for O=C1c2ccccc2C(=O)c2c(NCCCNCCO)ccc(NCCCNCCO)c21 in this assay? inactive

Could you please tell me the result logged for COc1ccc(CCc2cc(OC)c(O)c(OC)c2)cc1 in this assay? inactive

Could you please tell me the result logged for CC(=O)c1sc2c(c1OC(=O)c1ccco1)c(=O)n(-c1ccccc1)c(=S)n2-c1ccccc1 in this assay? inactive

Could you please tell me the result logged for O/N=C1/Nc2ccccc2C(=S)N2CSCC12 (configuration not stated) in this assay? inactive

Could you please tell me the result logged for C=CCCCN(C(=O)c1ccccc1)c1ccc(C(=O)OC)o1 in this assay? inactive

====

# Tested on: TK-10
# assay-summary: NCI tumour cell line growth inhibition, 48 h
Activity calls are given as the source filed them. Cut-off read from the data, not from the text of the source: active = GI50 up to about 1.1 µM and inactive = higher.
test-readout: GI50

CCOC(=O)C1=COC(C)(CCc2ccccc2)CC1=O (stereo not given)
> 100 µM (inactive)
O=C(N(C1=CCCC1)N(c1ccccc1)c1ccccc1)C(F)(F)F
39.9 µM (inactive)
Cc1ncc([N+](=O)[O-])n1CCNC(=O)CCC(=O)NCCCn1ccnc1[N+](=O)[O-]
> 100 µM (inactive)
N#Cc1nc(/C=C/c2nc(C#N)c(N)o2)oc1N
> 10 µM (inactive)

Consider the record given below.
Supply recorded GI50 for Cc1cc2[nH]c3c(C#N)c(-c4ccccc4)c(CN4CCOCC4)c(=O)n3c2cc1C here. > 100 µM (inactive)

====

# System: NCI-H226
# assay-summary: NCI tumour cell line growth inhibition, 48 h
Active and inactive are the calls of the source. Rule as the data show it: active = GI50 up to about 1.1 µM and inactive = higher.
Parameter call: string, one of active, inactive

Could you please tell me the result logged for CC(C)(C)c1ccc(C(O)(c2ccc(C(C)(C)C)cc2)c2ccc(C(C)(C)C)cc2)cc1 in this assay? inactive

Could you please tell me the result logged for CC1(C)/C(=N\O)C2(C#N)CCC1C2 (stereo not given) in this assay? inactive

Could you please tell me the result logged for CC1=C(C(=O)OCCc2ccc([N+](=O)[O-])cc2)C(c2ccccc2[N+](=O)[O-])C(C(=O)OC(C)C)=C(C)N1 (stereo not given) in this assay? inactive

Could you please tell me the result logged for NCCCCc1cc(O)c2c(c1O)C(=O)c1ccccc1C2=O in this assay? inactive

Could you please tell me the result logged for COc1cc(C2c3cc4c(cc3OC(O)C2C)OCO4)cc(OC)c1OC (stereo not given) in this assay? active

====

# Tested on: M14
# assay-summary: NCI tumour cell line growth inhibition, 48 h
Activity calls are given as the source filed them. No stated cut-off is given here; in the data, active = GI50 up to about 1.1 µM and inactive = higher.
Parameter call: string, one of active, inactive

CN(CCCNC(=O)c1nn(-c2ccc(Cl)cc2Cl)c2c1ccc1ccccc12)CCCNC(=O)c1nn(-c2ccc(Cl)cc2Cl)c2c1ccc1ccccc12
inactive
C=C(Br)C(Cl)(CBr)CCC(Br)C(C)(C)Cl (configuration not stated)
inactive
Cn1c2ccccc2n2c3ncccc3c(=O)cc12
inactive

Could you please tell me the result logged for O=C(Cc1ccccc1)NN1C(=O)/C(=C\c2ccc([N+](=O)[O-])cc2)S/C1=N\c1ccccc1 in this assay? inactive

Could you please tell me the result logged for C=CCSSCC=C in this assay? inactive

====

What GI50 was measured for each of the following?
# System: IGROV-1
# assay-summary: NCI tumour cell line growth inhibition, 48 h
Activity calls are given as the source filed them. Cut-off read from the data, not from the text of the source: active = GI50 up to about 1.1 µM and inactive = higher.

O=c1c(=O)c2cscc2c1=O
4.66 µM (inactive)
COc1ccc(-c2c3ccccc3c(-c3ccc(OCCBr)cc3)c3ccccc23)cc1
> 100 µM (inactive)
CC(C)=CCC(OC(=O)C=C(C)C)c1cc(O)c2c(c1O)C(=O)C=CC2=O (stereo not given)
2.04 µM (inactive)
CN(/N=C(\C(=O)O)c1ccccc1)C1=NCCN1
54.2 µM (inactive)

Hi team, please reply with GI50 for each item in this list.
1. N#Cc1ccccc1NC(=O)C(=O)C(C(=O)c1ccccc1F)C1OC(=O)c2ccccc21 (stereo not given)
2. N#Cc1nc(/C=C/c2nc(C#N)c(N)o2)oc1N

1. 86.1 µM (inactive)
2. > 10 µM (inactive)

Hi team, please reply with GI50 for each item in this list.
1. O=C1CC(C(CC(=O)c2ccccc2)c2ccccc2)C(=O)c2ccccc2N1 (stereo not given)
2. CCOC(=O)c1cc2c(OCc3ccccc3)c(OC)cc3c2c(n1)N(c1ccc(OC)cc1)C(C)C3 (stereo not given)
3. C/C=C(/CBr)CCC(Br)C(C)(C)Cl.C/C=C(\CBr)CCC(Br)C(C)(C)Cl (stereo not given)
4. Cn1nc(-c2ccccc2)c(C(=O)/C=C/c2ccc(F)cc2)c(N2CCCC2)c1=O

["> 100 µM (inactive)", "> 50 µM (inactive)", "> 10 µM (inactive)", "21.4 µM (inactive)"]

====

# System: SNB-75
# assay-summary: NCI tumour cell line growth inhibition, 48 h
The source made the active and inactive calls. No stated cut-off is given here; in the data, active = GI50 up to about 1.1 µM and inactive = higher.
test-readout: GI50

Cc1ccc(NC(=O)c2nc(S)nc(N)c2-c2ccccc2C)cc1C
> 100 µM (inactive)

Hi team, please reply with GI50 for each item in this list.
1. OC1(c2ccccc2)OC(C#Cc2ccccc2)(c2ccccc2)c2ccccc21 (centres undefined)
2. O=C(CC1(O)CCCCC1)OC1CCCC1
3. COc1ccc(-c2nc(-c3cnccn3)n(C/C=C/c3ccccc3)n2)cc1
4. CCOC(=O)C1=C(C)NC(C)=C(C(=O)OCCNC(=O)c2ccc(N=[N+]=[N-])cc2)C1c1ccccc1C(F)(F)F (centres undefined)
5. Cc1ccc(NC(=O)CC2SC(Nc3cccc(Cl)c3C)=NC2=O)cc1 (centres undefined)
6. Oc1cn(-c2ccc(Cl)cc2)nc1-c1nnc(Nc2ccccc2)o1
7. O=C1[C@@H]2C(c3c(Cl)cccc3Cl)=NO[C@@H]2C(=O)N1c1ccc(Cc2ccc(N3C(=O)[C@H]4C(c5c(Cl)cccc5Cl)=NO[C@H]4C3=O)cc2)cc1

1. 6.1 µM (inactive)
2. > 100 µM (inactive)
3. 21.8 µM (inactive)
4. > 10 µM (inactive)
5. > 100 µM (inactive)
6. 20.8 µM (inactive)
7. > 100 µM (inactive)

These entries and their values trace back to ChEMBL document CHEMBL1201862.
